Tested on: K4 kissing-loop RNA reporter;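 also: bound reporter read as fluorescence of individual clusters on recovered sequencing chips by microscopy, with normalized cluster intensities fitted with a binding model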
Assay: apparent KD of K4 kissing-loop reporter; higher = weaker reporter binding
Details: Eterna round: R107; input ligand: arginine 13.2 mM
Reported values of apparent KD of K4 kissing-loop reporter for individual entries

chain	apparent KD of K4 kissing-loop reporter (nM)
UCACCGCCUAGUGAUGUUACGCGACUCAGAAAGGAUAUAAUCAAUCUUAGAAGGUUCACACCGUAUGGAUAUUAUCUAUCUCGUU [theeternabot_exclusion_KL_FMN_A_39]	284
AAAUUUAUAUUAGAUACCAGUUUAUUGGAUGUAAAUUAUGACAUGAGUGAUGUUCAUGUAAGCCCUUGGCAGCUGGUAUGGGUUU [KL-XTheo-B22]	119
AGUAAUGAGUGAUGUUCAAGUAGUAAGGAUACCAGUAAUUCAAAAUGCCCUUGGCAGCUUAGCGCUACCAAUAGAUGGGUAGUGG [Theophilline A V3 (+6G)]	250
UGUCAUUGGUCGGCCGCCACUUCAUAAAAGAGUGAUGUUCUAAAGACGGAUCGAAAGAUCUGUCGAAGGACCGGGACCGAUGACU [TrypBS 19 #SwitchBubble #StaticStem]	168
AAAAUAACCCAGUGAUGUUGGUAUACAGAUACCAGCGACGAAAGUCGCCCUUGGCAGCUGUGGACGUACAAAAUAAGUACGUCCU	705
AUUAUCAAUUUAUUAUAUAACUUUUCAGAAGGAGCGUGGAAGUACACAGGUAGGUCGCUGAAUAUAGGACUAGUGAUGUUAGUUA [JR_Nu_SSArginiA_Sub024]	221
UCCUCGAAUCGACCUCGAAAGAGGAUGGAUACCAGAGAAGAAAUUCUCCCUUGGCAGCCAGUGAUGUUGGAACGAGGUAAAUAAA [#SwitchBubble 20 #K4Late]	412
CGGGAUGUUAAAGGAUAUAGCAGGUGAUACAAGAAAGUGAGUGAUGUUUAUGUAGAUGAUGAUAUGUUAGAAGGUUAACAAAACG [abcdefghijkl]	726
UGACUGGACUGAAGGAGCGGGCGAGACAAAGUCUCGAACUCGUAGUGAUGUUAUGAAAUAACCCAGGUAGGUCGCAGUCUAGUCU	684
GUAGGAUGAGGAGGAGGAUGAAAUACUGAAGGAGCGCAGAGAAAUGCAGGUAGGUCGCGGUAAGGAAGUAUAGUGAUGUUAUAUA [#07 K4 Arginine A Same State]	367
AAAGUUGAAAGUGAUACCAGACGAGUGAAGGGAAGUAAUUAAUUUGGAGUGAUGUUCCGCGUCCCUUGGCAGCAUUUUGUAAUUU [Exclusion Theophylline B GF 24]	195
UAAGAAUAAGUAGCAGUGAUGUUGCUACUACGAGGACCGGUACGGCCGCCACUCGAGCCGUACCAUAACAUCACUGAGGUACGAA [(H1)-(H2)-(Trp1)-(Trp2)-(T)'-(H)'-(T)'']	175
GGGUCUGCCGGAAGGAGCGCACUAUGGAGUGAUGUUCCAUGACCGCACAGCUUGCGGUCAGUGCAGGUAGGUCGCCGGUAGCGUU [Inesor]	154
CCUCACGUAGGACUAGUGAUGUUAGACUACCGAGGACCGGUACGGCCGCCACUCGUCGUACAAGAUAACCAUCUGCCAGUAUACA	103
AAAUAAAGCAGUCACCCAGUGAUGUUGGAAGGAGCGUGCGAAAGCACAGGUAGGUCGCCGAUAAGGACAAAGUCCAGUGGCUGCA [#SwitchBubble 28 #K4Early]	344
ACAAAAGUGAUGUUUUUGAACGUGCGCGAUACCAGAAAUGUCUUCUUCCCUUGGCAGCGCUAUUACUUGUAAGAAAGUACGUUUC [theeternabot_sameState_KL_Theo_A_17]	528
GGAUAGGACAGAGGAUAUGGAGAGUCUACAAAGUAGGCUCAUAAUCCUUGAAUGGAAGUGAUGUUUCCAGAAGGCUGUCCUAUCG [FmnBX 17 - #SwitchBubble #StaticStem #Palindromic]	99.9
AGUACAAUUGCGGCCGCCACUCAACGCAGAUCAAAGAUCUGCAUUCACUCAGUGAUGUUGAGUGAGAGGACCGGGCAUUUGUACA [Omei KL Tryp B SS B v2]	481
AAGCAGUCACUCGAAAUCAUCGAAGAUGAACGAGGACCGGUACGGCCGCCACUCGGAGUGAUGUUCCGAAGACUGCAAAAUAAAA [MatMod 1 - Jieux - Exclusion - Tryptophan A]	410
GCUAUGGUAGGAAGGAGCGCUUGCUCGGUCAUAAGAGUGAUGUUCGAGACCGAGCAUUUAUAGCAGGUAGGUCGCCUACUAUAGC [Arginine B K4 7]	194
CGCCGCAAGGCGGGCCGGCCCACUCCGGAAGGAGCGCCCGCAAGGGCAGGUAGGUCGCCGGAGUGAUGUUCCGGUGGCCGGCCCG [#2 Exclusion - Arginine A Attempt #3 (Inspired by Omei)]	244
GGUGACAACCAGAAGUGAUGUAUAGAAUAGCGAGGACCGGUACGGCCGCCACUCGUGAAGAGAAAGGAGUGAUGUUCCGUAAUGG [Kazoo C4]	260
CGCAAGCAGCCAGUGAUGUUGGCCGCCUUGCGAGGACCGGUACGGCCGCCACUCGAAGGCGGCUACUAGUAAACCGCCUAACGGA [KL-XTryp-A17]	91.1
